This section presents binders with their documented EC50 values.
- TARGET DESC: T1, human SIRPα v1 on CHOK1 cells (human, UniProt P78324 31-504)
- T1 construct: whole, on cells; also called CHOK1-hSIRPα v1; cell surface human SIRPα v1
- T1 sequence (P78324 31-504): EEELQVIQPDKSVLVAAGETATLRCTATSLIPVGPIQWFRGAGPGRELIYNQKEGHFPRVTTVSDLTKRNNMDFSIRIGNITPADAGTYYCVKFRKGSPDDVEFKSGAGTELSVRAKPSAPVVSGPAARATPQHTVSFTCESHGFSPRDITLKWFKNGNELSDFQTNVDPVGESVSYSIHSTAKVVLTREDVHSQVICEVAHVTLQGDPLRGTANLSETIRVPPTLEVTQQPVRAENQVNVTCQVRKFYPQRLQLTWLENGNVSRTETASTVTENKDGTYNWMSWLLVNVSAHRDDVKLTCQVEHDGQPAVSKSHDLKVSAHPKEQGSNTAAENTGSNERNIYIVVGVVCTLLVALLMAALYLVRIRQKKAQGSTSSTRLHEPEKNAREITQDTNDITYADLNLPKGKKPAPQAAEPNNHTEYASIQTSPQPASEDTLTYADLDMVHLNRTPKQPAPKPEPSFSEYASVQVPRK
- TEST SUMMARY: FACS, CHOK1 cells stably expressing human SIRPα v1
- Text: Binding activity of the purified chimeric antibodies against human SIRPα variants was detected by FACS assay using CHOK1 cells or 293F cells stably expressing human SIRPα v1 and CHOK1 cells stably expressing human SIRPα v2. […] EC₅₀ and top signal calculated using GraphPad Prism9.0.
Remember to put the unit after the number in your answer.

BINDER: Anti-SIRPα antibody C73 (antibody, human IgG4, V domains shown, Mouse variable regions; also called 073c; 073C) VH: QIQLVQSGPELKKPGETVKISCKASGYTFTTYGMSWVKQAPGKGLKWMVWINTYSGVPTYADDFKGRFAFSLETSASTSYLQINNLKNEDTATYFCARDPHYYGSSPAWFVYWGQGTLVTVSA VL: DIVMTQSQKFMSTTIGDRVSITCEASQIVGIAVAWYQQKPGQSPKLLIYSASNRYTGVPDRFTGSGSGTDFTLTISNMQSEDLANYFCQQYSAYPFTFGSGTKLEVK
EC50: 1.5 nM

Query: State the recorded EC50 for this entry: Anti-SIRPα antibody C59 (antibody, V domains shown, Mouse variable regions; tested as purified chimeric antibody; also called 059c) VH: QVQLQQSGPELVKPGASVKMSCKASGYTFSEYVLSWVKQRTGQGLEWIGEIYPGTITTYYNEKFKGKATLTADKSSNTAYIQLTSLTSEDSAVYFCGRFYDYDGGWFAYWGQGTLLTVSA VL: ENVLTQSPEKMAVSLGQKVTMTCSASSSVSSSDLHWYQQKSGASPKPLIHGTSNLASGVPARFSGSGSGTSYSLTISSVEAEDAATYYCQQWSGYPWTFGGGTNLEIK
Result: 1.45 nM

Query: State the recorded EC50 for this entry: Anti-SIRPα antibody C25 (antibody, V domains shown, Mouse variable regions; also called 025c; 025) VH: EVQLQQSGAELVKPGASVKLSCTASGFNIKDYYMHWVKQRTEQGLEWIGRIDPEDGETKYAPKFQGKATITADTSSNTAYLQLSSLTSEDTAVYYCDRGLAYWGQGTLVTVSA VL: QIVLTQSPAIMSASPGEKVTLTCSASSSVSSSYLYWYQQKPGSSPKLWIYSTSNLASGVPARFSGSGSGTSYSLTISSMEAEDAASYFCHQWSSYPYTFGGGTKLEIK
Result: 1.49 nM
